The values you see were collected from ChEMBL document CHEMBL1641404.

Experiment: Tmax in CD-1 mouse 10 mg/kg, po
Assay type: ADME, organism-based
Parameters: dose 10 mg/kg, route oral
Settings: in vivo
measured_quantity: Tmax

item_smiles=COc1cc2c(cc1Nc1ncc(Cl)c(Nc3ccc(N4CCOCC4)cc3OC)n1)CCN(CC(=O)N(C)C)CC2 measured_quantity=Tmax reported_value="30 min"

====

Assay: Volume of distribution in Sprague-Dawley rat 1 mg/kg, iv
Format: ADME, organism-based
Parameters: dose 1 mg/kg, route intravenous
Conditions: in vivo
measured_quantity: Vd (L/kg)

item_smiles=COc1cc2c(cc1Nc1ncc(Cl)c(Nc3ccc(N4CCOCC4)cc3OC)n1)CCN(CC(=O)N(C)C)CC2 measured_quantity=Vd unit=L/kg reported_value=1.1
